# Test system: IGROV1 ovarian
# Experimental Details: NCI-60 one-dose screen, 48 h (100 = growth as untreated, 0 = no growth, -100 = all killed)
# Test Conditions: 10 µM unless noted
The panel holds about 83,000 compounds, 20% with a hit somewhere; the sample as a whole holds those more often.
Reported Property: growth (%)
Form entry: value (%) — number only.

Consider the reported growth for these compounds:
Compound	Reported Property	Result Value
C=CCn1c(SCC(=O)Nc2ccc(/C(C)=N\O)cc2)nnc1-c1cc(-c2ccc(OC)cc2)nc2ccccc12	growth	11.1
COc1ccc(-c2nnc(SCC(=O)N3CCN(c4cc5c(cc4F)c(=O)c(C(=O)O)cn5C4CC4)CC3)o2)cc1OC	growth	97.1
c1ccc2c(c1)Oc1cccnc1-n1nccc1-2	growth	104
CC(C)NCC(O)COc1ccc(CC(N)=O)cc1 (stereo not drawn)	growth	97.4
CC1CCc2cc(F)cc3c(=O)c(C(=O)O)cn1c23 (stereo not drawn)	growth	109

Item under review: NC(=O)C1=C[C@H]2[C@H]3C=C[C@@]2(O)C(=O)O[C@@H]3O1 . Reported growth?
50.9

Item under review: COc1ccc2c(-c3ccc(F)cc3)c(C#N)c(=NC(C)=O)oc2c1 . Reported growth?
54

Item under review: CC(=O)N[C@@H](CNC(=O)c1cc(NC(=O)c2cc(NC(=O)c3cc(NC(=O)c4nccn4C)cn3C)cn2C)cn1C)CC(=O)Nc1cn(C)c(C(=O)Nc2cc(C(=O)Nc3cc(C(=O)Nc4cc(C(=O)NCCCN(C)CCCNC(=O)c5cccc(C(=O)O)c5)n(C)c4)n(C)c3)n(C)c2)n1 . Reported growth?
113
